measurement.description: Aqueous solubility of peptides
condition.label: unmodified epitope, Table 1
Ends that are not written are not given here.
recorded.endpoint: Solubility of unmodified peptide epitope

>>> print(df.to_string())
                             sequence_input  measured_result
0  FQDAYNAAGGHNAVF [Mycobacterium tuberculosis p25, FQDAYNAAGGHNAVF]      hydrophobic
1                TAYRYHLL [Trp1m, TAYRYHLL]      hydrophilic
2  QVYSLIRPNENPAHK [influenza virus nucleoprotein NP311, QVYSLIRPNENPAHK]      hydrophilic
3              KVPRNQDWL [gp100, KVPRNQDWL]      hydrophilic
4               SIIVFNLL [Dpagt1, SIIVFNLL]      hydrophobic
5              ASMTNMELM [Adpgk, ASMTNMELM]      hydrophobic
6              AQLANDVVL [Resp1, AQLANDVVL]      hydrophobic
7  ISQAVHAAHAEINEAGR [OT-II, ISQAVHAAHAEINEAGR]      hydrophilic

====

Some sequences, each annotated with its measured solubility.
measurement.description: Aqueous solubility of peptides
condition.label: water
Ends that are not written are not given here.
recorded.endpoint: solubility (mM)

In [3]: df
Out[3]:
                             sequence_input  recorded_endpoint  qualifier_operator  measured_result
0                 DDDGGGSIINFEKL [D3G3-OVA]         solubility                   =               50
1  DDDGGGSVYDFFVWL [D3G3-Trp2, DDDGGGSVYDFFVWL]         solubility                   >               30

====

measurement.description: Aqueous solubility of peptides
condition.label: water

compound	measurement.units	solubility
CC[C@H](C)[C@H](NC(=O)[C@@H](NC(=O)[C@@H](N)CO)[C@@H](C)CC)C(=O)N[C@@H](CC(N)=O)C(=O)N[C@@H](Cc1ccccc1)C(=O)N[C@@H](CCC(=O)O)C(=O)N[C@@H](CCCCN)C(=O)N[C@@H](CC(C)C)C(=O)O [OVA257-264, SIINFEKL]	µM	2000
